- STUDY TARGET: guinea-pig skeletal muscle membranes (1,4-dihydropyridine receptors / calcium channel) (Cavia porcellus, UniProt A0A286X7I0)
- Construct: membrane fractions from guinea-pig brain, cardiac muscle and skeletal muscle; from tissue; host or cells: guinea-pig skeletal muscle membranes
- Sequence (A0A286X7I0 1-1867): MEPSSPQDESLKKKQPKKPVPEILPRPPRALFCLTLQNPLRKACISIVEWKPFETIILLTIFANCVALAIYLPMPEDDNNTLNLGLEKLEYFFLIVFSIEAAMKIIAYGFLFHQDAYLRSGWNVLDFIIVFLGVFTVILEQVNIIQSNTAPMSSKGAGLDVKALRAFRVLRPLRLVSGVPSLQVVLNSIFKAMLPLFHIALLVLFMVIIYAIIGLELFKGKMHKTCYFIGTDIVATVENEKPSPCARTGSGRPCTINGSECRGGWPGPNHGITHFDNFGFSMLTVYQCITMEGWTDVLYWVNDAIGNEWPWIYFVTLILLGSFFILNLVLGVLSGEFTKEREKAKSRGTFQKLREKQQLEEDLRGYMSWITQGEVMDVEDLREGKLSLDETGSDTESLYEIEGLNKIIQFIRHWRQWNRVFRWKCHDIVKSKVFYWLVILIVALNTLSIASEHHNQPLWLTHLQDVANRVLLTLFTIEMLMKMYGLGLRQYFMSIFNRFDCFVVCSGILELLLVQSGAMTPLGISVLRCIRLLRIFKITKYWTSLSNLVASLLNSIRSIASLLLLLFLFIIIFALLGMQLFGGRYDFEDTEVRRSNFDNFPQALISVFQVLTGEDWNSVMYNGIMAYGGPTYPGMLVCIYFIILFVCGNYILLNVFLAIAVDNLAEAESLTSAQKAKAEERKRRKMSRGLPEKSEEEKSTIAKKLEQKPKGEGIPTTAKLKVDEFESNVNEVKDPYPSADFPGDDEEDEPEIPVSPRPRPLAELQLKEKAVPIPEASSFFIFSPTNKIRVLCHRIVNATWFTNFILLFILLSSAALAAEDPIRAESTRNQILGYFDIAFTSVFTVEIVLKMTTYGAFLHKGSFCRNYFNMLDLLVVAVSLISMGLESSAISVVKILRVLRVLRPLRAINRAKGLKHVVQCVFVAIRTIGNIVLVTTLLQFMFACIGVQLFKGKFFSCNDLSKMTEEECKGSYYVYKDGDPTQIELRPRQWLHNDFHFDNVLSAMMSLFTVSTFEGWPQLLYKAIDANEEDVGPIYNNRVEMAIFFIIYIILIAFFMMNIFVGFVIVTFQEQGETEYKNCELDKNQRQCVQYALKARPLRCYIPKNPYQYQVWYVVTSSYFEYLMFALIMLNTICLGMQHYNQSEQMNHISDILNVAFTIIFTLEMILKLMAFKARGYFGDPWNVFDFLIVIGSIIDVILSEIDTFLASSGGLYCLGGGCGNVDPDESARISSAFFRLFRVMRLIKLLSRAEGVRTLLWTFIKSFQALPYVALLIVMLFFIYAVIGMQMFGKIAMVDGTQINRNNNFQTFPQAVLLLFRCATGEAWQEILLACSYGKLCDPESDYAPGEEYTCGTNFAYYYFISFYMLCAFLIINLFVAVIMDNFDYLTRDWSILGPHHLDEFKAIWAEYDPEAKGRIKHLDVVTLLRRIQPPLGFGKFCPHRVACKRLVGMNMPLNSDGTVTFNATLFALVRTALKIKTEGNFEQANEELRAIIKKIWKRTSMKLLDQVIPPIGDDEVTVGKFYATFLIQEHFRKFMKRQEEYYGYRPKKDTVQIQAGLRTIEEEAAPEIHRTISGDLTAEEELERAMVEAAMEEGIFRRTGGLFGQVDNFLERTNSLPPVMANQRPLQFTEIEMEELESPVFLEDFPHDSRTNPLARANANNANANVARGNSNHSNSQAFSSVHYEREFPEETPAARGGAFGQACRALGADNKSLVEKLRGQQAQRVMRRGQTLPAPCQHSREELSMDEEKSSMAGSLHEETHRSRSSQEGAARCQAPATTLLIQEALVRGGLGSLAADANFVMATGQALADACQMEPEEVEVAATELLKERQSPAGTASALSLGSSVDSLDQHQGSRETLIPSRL
- PROCEDURE DETAILS: Competition radioreceptor assay with the ^125 I-labelled 1,4-dihydropyridine of Example 2
- Assay type: binding
- CONDITIONS: guinea-pig skeletal muscle membranes; ligand 20-30 pmole/l; 25° C.; mean ± asymptotic standard deviation, 3 independent experiments
pIC50: −log10 of the molar value.
ENDPOINT LABEL: pIC50

[[record]]
compound = "COC(=O)C1=C(C)NC(C)=C(C(=O)OCCN(C)Cc2ccccc2)C1c1cccc([N+](=O)[O-])c1 (single isomer, unassigned; (-)) [(-)Nicardipine]"
measured_value = 7.38

[[record]]
compound = "CCOC(=O)C1=C(C)NC2=C(C(=O)OC2)C1c1ccccc1OC(F)F (stereo not drawn) [CGP 28392]"
measured_value = 5.90

[[record]]
compound = "COC(=O)C1=C(C)NC(C)=C(C(=O)OC(C)C)C1c1cccc2nonc12 (single isomer, unassigned; (-)) [(-)205-034]"
measured_value = 6.70

[[record]]
compound = "COC(=O)C1=C(C)NC(C)=C(C(=O)OCCN(C)Cc2ccccc2)C1c1cccc([N+](=O)[O-])c1 (single isomer, unassigned; (+)) [(+)Nicardipine]"
measured_value = 8.15

[[record]]
compound = "COc1ccc(CCN(C)CCCC(C#N)(c2cc(OC)c(OC)c(OC)c2)C(C)C)cc1OC (single isomer, unassigned; (+)) [(+)Methoxyverapamil, Methoxyverapamil]"
measured_value = 6.72

[[record]]
compound = "COC(=O)C1=C(C)NC(C)=C(C(=O)OC(C)C)C1c1cccc([N+](=O)[O-])c1 (single isomer, unassigned; (+)) [(+)Bay e 6927]"
measured_value = 6.38

[[record]]
compound = "COC(=O)C1=C(C)NC(C)=C(C(=O)OC(C)C)C1c1cccc2nonc12 (single isomer, unassigned; (+)) [(+)205-033]"
measured_value = 8.70

[[record]]
compound = "COC(=O)C1=C(C)NC(C)=C(C(=O)OC(C)C)C1c1cccc([N+](=O)[O-])c1 (single isomer, unassigned; (-)) [(-)Bay e 6927]"
measured_value = 8.52

[[record]]
compound = "COc1ccc(CCN(C)CCC[C@@](C#N)(c2cc(OC)c(OC)c(OC)c2)C(C)C)cc1OC [(-)Methoxyverapamil, Methoxyverapamil]"
measured_value = 7.68


---

- STUDY TARGET: skeletal muscle membranes (1,4-dihydropyridine receptors) (Cavia porcellus, UniProt A0A286X7I0)
- Construct: membrane fractions from guinea-pig brain, cardiac muscle and skeletal muscle; from tissue; host or cells: guinea-pig skeletal muscle membranes
- Sequence (A0A286X7I0 1-1867): as above
- PROCEDURE DETAILS: Saturation analysis, binding of ^125 I-labelled 1,4-dihydropyridine to skeletal muscle membranes
- Design: species or system guinea-pig
- CONDITIONS: muscle membranes, 25° C.; read-out: dissociation constant (KD)
pKd: −log10 of the molar value.
ENDPOINT LABEL: pKd

[[record]]
compound = "CCOC(=O)C1=C(C)NC(C)=C(C(=O)OCCNC(=O)CCc2ccc(O)c([125I])c2)C1c1ccccc1C(F)(F)F (stereo not shown) [^125 I-labelled 1,4-dihydropyridine]"
endpoint_label = "pKd"
measured_value = 9.46


---

- STUDY TARGET: skeletal muscle membranes (1,4-dihydropyridine receptors) (Cavia porcellus, UniProt A0A286X7I0)
- Construct: membrane fractions from guinea-pig brain, cardiac muscle and skeletal muscle; from tissue; host or cells: guinea-pig skeletal muscle membranes
- PROCEDURE DETAILS: Saturation analysis, binding of ^125 I-labelled 1,4-dihydropyridine to skeletal muscle membranes
- Set-up: species or system guinea-pig
- CONDITIONS: skeletal muscle membranes, 25° C.; read-out: dissociation constant (conclusion)
pKd: −log10 of the molar value.
ENDPOINT LABEL: pKd

[[record]]
compound = "CCOC(=O)C1=C(C)NC(C)=C(C(=O)OCCNC(=O)CCc2ccc(O)c([125I])c2)C1c1ccccc1C(F)(F)F (stereo not shown) [^125 I-labelled 1,4-dihydropyridine]"
measured_value = "> 9.00"


---

- STUDY TARGET: guinea-pig skeletal muscle membranes (1,4-dihydropyridine receptors / calcium channel) (Cavia porcellus, UniProt A0A286X7I0)
- Construct: membrane fractions from guinea-pig brain, cardiac muscle and skeletal muscle; from tissue; host or cells: guinea-pig skeletal muscle membranes
- PROCEDURE DETAILS: Competition radioreceptor assay with the ^125 I-labelled 1,4-dihydropyridine of Example 2
- Type: binding
- CONDITIONS: read-out: IC50 (50% inhibition of the specific binding of the ligand in the radioreceptor assay); guinea-pig skeletal muscle membranes; ligand 20-30 pmole/l; 25° C.; mean ± asymptotic standard deviation, 3 independent experiments
ENDPOINT LABEL: IC50 (nM)

[[record]]
molecule = "CCOC(=O)C1=C(C)NC(C)=C(C(=O)O)C1c1cccc([N+](=O)[O-])c1 (stereo not shown)"
endpoint_label = "IC50"
quantity_unit = "nM"
measured_value = 1860

